tested on: A549 NSCLC; experiment: NCI tumour cell line growth inhibition, 48 h
Task for the reader: assign each of the following compounds its reported GI50.

# annotated cases, reported GI50 shown
{"columns": ["Compound", "Data Value"],
 "data": [
  ["COc1ccc2c(c1)sc1nc(-c3ccccc3)c(-c3cccc4ccccc34)n12", "816 nM"],
  ["CN(C)c1ccc(/C=C\\C2=[N+](C)c3ccccc3C2(C)C)cc1", "1060 nM"],
  ["C=C(C)C(OC)C(O)CC1(C)CC(O)CC(C)(C2CCC3OC(C4(C)CCC(Br)C(C)(C)O4)CCC3(C)O2)O1 (centres undefined)", "21000 nM"]
]}

Pending compound:
**Query** Query GI50 on A549 NSCLC for `CCN1/C(=C\c2cc[n+](CC)c3ccccc23)C=Cc2ccccc21`
**Result** 215 nM

* * *

test system: MCF7 breast; test: NCI tumour cell line growth inhibition, 48 h; in the data active = GI50 below about 0.43 µM; inactive = the rest
Give your call using only these classes: active, inactive

{"columns": ["Molecule", "Label Class"],
 "data": [
  ["CC1CCc2nc[nH]c(=O)c21 (stereo not given)", "inactive"],
  ["COC([CH2][Hg][n]1cnc2c1c(=O)n(C)c(=O)n2C)CN1C(=O)c2ccccc2S1(=O)=O (stereo not given)", "inactive"],
  ["Cc1ccnc2c1ccc1c(C)ccnc12", "active"],
  ["Cc1ccc(NC(=O)Nc2ccc(-c3cccnc3)cc2N2CCC(CO)CC2)cc1", "inactive"],
  ["NC(N)=NS(=O)(=O)c1ccc(Nc2c3ccccc3nc3c(C(=O)NCCO)cccc23)cc1", "inactive"]
]}

**Query** Entry `O=C1NC(=NCCc2cccc(F)c2)S/C1=C\c1ccc2ncccc2c1` : call = ?
**Result** inactive

* * *

Answer each item with its documented TGI.
system: DMS 114 small cell lung; assay: NCI tumour cell line growth inhibition, 48 h

Illustrative cases are given below, each with its answer.
{"columns": ["Molecule", "TGI"],
 "data": [
  ["COC(=O)C1(C(C)C)CCc2c(OC)ccc(OC)c2C1=O (stereo not drawn)", "> 100 µM"],
  ["CNS(=O)(=O)NNS(=O)(=O)c1ccccc1", "> 100 µM"],
  ["CC1(C(=O)O)CCC[C@@]2(C)C1CC[C@@]1(C)c3cocc3CCC21 (stereo partly drawn)", "> 100 µM"],
  ["COc1ccccc1N1C(=O)C2c3[nH]c4ccccc4c3C3CCC(C(C)(C)C)CC3C2C1=O (stereo not drawn)", "> 100 µM"],
  ["NC1=NCCC1(c1ccccc1)c1ccccn1 (stereo not drawn)", "> 100 µM"]
]}

Please go through the list and note TGI for each molecule.
1. Cc1c(C(=O)CC(=O)C(=O)Nc2ccccc2C(F)(F)F)[n+](=O)c2ccccc2n1[O-]
2. Cc1cc(NS(=O)(=O)c2ccc(Nc3c4ccccc4nc4c(C(=O)N5CCN(CCOS(C)(=O)=O)CC5)cccc34)cc2)no1
3. O=C(CC(=O)c1cccc2ccccc12)C(=O)Nc1ccc(Cl)cc1
4. COC(=O)/C(C#N)=C1\NC(=O)c2ccccc21
5. CN(C)N=Nc1ccc(C(N)=O)cc1

**Result**
25.2 µM
> 100 µM
> 100 µM
> 100 µM
> 100 µM

* * *

tested on: OVCAR-8 ovarian; experiment: NCI tumour cell line growth inhibition, 48 h
Where a SMILES comes first, the peptide text is derived from it. [ ]: non-standard residue; d: D form. The star is where a group is joined. NMeAc5c = CNC1(C(=O)O)CCCC1; Boc = CC(C)(C)OC(=O)*; OBn = c1ccc(CO*)cc1
Would you kindly list TGI for each of these compounds?

Look over these answered cases.
{"columns": ["Compound", "Target Entity", "TGI"],
 "data": [
  ["C=CC1(C)CCC2C(=CCC3C2(C)CC(O)C(O)C3(C)COC2OC(C(=O)O)C(O)C(O)C2O)C1 (stereo not drawn) (tested in a mixture with another compound)", "OVCAR-8 ovarian", "> 100 µM"],
  ["Cc1cc(-c2nc(C(=O)Nc3cc4oc(N5CCOCC5)nc4nc3N3CC[C@@H](O)C3)co2)ccn1", "OVCAR-8 ovarian", "> 100 µM"],
  ["Nc1nc(-n2c(-c3ccccc3)nc3c(Br)cc(Br)cc3c2=O)nnc1-c1cccc(Cl)c1Cl", "OVCAR-8 ovarian", "> 100 µM"],
  ["Nc1c2c(nc3ccccc13)-c1ccccc1CC2", "OVCAR-8 ovarian", "18 µM"],
  ["O=C1C=CC(=O)c2c1ccc1c3ccccc3n(CCCCCCCCCCCCn3c4ccccc4c4ccc5c(c43)C(=O)C=CC5=O)c21", "OVCAR-8 ovarian", "> 100 µM"]
]}

# per-item lookup of TGI; items listed below
1. NC(=O)NO.O.O.O.O.O.O.O.O.O.O.O.[Ge].[Ge].[Ge].[Ge].[Ge].[O]=[Ge].[O]=[Ge].[O]=[Ge].[O]=[Ge].[O]=[Ge][OH]
2. Nc1nc(SCCc2ccccc2)c2[nH]cnc2n1
3. Cc1cn2c(/C=N/N=C(N)N)c(-c3cccc([N+](=O)[O-])c3)nc2s1
4. c1ccc(-c2nc(-c3ccccc3SSc3ccccc3-c3nc(-c4ccccc4)nn3-c3ccccc3)n(-c3ccccc3)n2)cc1

**Result**
["> 100 µM", "> 100 µM", "3.7 µM", "> 100 µM"]

Quick request: TGI for each listed item, please.
1. O=C(O)CCC(NC(=O)c1ccc(Nc2nc3ccccc3nc2-c2cccs2)cc1)C(=O)O (stereo not drawn)
2. O=C(CCc1nc(=S)[nH][nH]1)Nc1cc(Cl)c(Cl)cc1Cl
3. CN(C(=O)C(Cc1ccccc1)NC(=O)OC(C)(C)C)C1(C(=O)NC(Cc2ccccc2)C(=O)OCc2ccccc2)CCCC1 (stereo not drawn) (Boc-Phe-[NMeAc5c]-Phe-OBn; configuration not given here)

**Result**
> 100 µM
> 100 µM
> 100 µM

**Query** Which TGI value is on record for COC(=O)c1ccccc1CC1Cc2ccc3c(c2C1=O)CCCC3 (stereo not drawn) ?
**Result** > 100 µM
